- system_under_test: Mitogen-activated protein kinase 7 (Homo sapiens)
- protocol: ERK5 transactivation activators in reporter cells, primary screen, cell-based, HTS (AID 1508626);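 further: luciferase driven by Gal4-ERK5 fusion binding five Gal4 sites before minimal TATA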
- details: HeLa Gal4-ERK5 transactivation, 18 h, at 5 µM, hits give high values
Activity calls are given as the source filed them.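 How the source made its calls: active means luciferase signal above three times the same-plate solvent-only control wells; inactive means the rest.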
Answer each item with its documented luciferase signal.

response.value for "C=C[C@@H](C1=CC(=O)C(OC)=C(OC)C1=O)c1ccccc1" (field: luciferase signal) = 136 AU (inactive)

response.value for "NCCCCNCCCN" (field: luciferase signal) = 48 AU (inactive)

response.value for CC(=O)O[C@H]1C[C@@H](OC(C)=O)C(C)(C)C2C[C@@H](O)[C@]3(C)C(CC[C@@]4(C)[C@H](c5ccoc5)OC(=O)[C@H]5O[C@]543)[C@]21C (stereo partly drawn) (field: luciferase signal) = 28 AU (inactive)

response.value for "O=c1cc(-c2ccc(O)cc2)oc2ccc(O)cc12" (field: luciferase signal) = 52 AU (inactive)

response.value for CC(=O)O[C@H]1C[C@@H](O)C(C)(C)C2C[C@@H](OC(C)=O)[C@]3(C)C(CC[C@@]4(C)[C@H](c5ccoc5)OC(=O)C5OC543)[C@]21C (stereo partly drawn) (field: luciferase signal) = 40 AU (inactive)

response.value for "COc1c(N2C[C@@H]3CCCN[C@@H]3C2)c(F)cc2c(=O)c(C(=O)O)cn(C3CC3)c12" (field: luciferase signal) = 64 AU (inactive)

response.value for "COc1cc2oc3cc(OC)c(OC)c(CC=C(C)C)c3c(=O)c2c(O)c1CC=C(C)C" (field: luciferase signal) = 72 AU (inactive)

response.value for "OC[C@H]1O[C@@H](O[C@H]2[C@H](O)[C@@H](O)[C@@H](O)O[C@@H]2CO)[C@H](O)[C@@H](O)[C@@H]1O" (field: luciferase signal) = 32 AU (inactive)

response.value for "C=CCCCCCCCCC(=O)[O-].C=CCCCCCCCCC(=O)[O-].[Zn+2]" (field: luciferase signal) = 48 AU (inactive)

response.value for FC(F)(F)C(Cl)Br (stereo not drawn) (field: luciferase signal) = 40 AU (inactive)

response.value for "N[C@@H](CC(=O)N1CCn2c(nnc2C(F)(F)F)C1)Cc1cc(F)c(F)cc1F" (field: luciferase signal) = 92 AU (inactive)

response.value for "Nc1nc(F)nc2c1ncn2[C@@H]1O[C@H](COP(=O)(O)O)[C@@H](O)[C@@H]1O" (field: luciferase signal) = 52 AU (inactive)

response.value for "COc1cc(OC)c(C(C)=O)c(O)c1C" (field: luciferase signal) = 32 AU (inactive)

response.value for CC1(C)C(=O)[C@@H]2C[C@@]3(O)C4=CC(=O)O[C@@H](c5ccoc5)[C@]4(C)CCC3C(C)(C2=O)[C@H]1CC(=O)O (stereo partly drawn) (field: luciferase signal) = 20 AU (inactive)

response.value for CCN(CC)CC#CCOC(=O)C(O)(c1ccccc1)C1CCCCC1 (stereo not drawn) (field: luciferase signal) = 68 AU (inactive)

response.value for "CC1(C)S[C@@H]2[C@H](NC(=O)COc3ccccc3)C(=O)N2[C@H]1C(=O)O" (field: luciferase signal) = 64 AU (inactive)

response.value for "CN1CCc2cccc3c2[C@H]1Cc1ccc(O)c(O)c1-3" (field: luciferase signal) = 48 AU (inactive)

response.value for C=CC(C1=CC(=O)C=CC1=O)c1ccccc1 (stereo not drawn) (field: luciferase signal) = 64 AU (inactive)

response.value for "CN(C)[C@@H]1C(=O)C(C(=O)NCN2CCCC2)=C(O)[C@@]2(O)C(=O)C3=C(O)c4c(O)cccc4[C@@](C)(O)[C@H]3C[C@@H]12" (field: luciferase signal) = 112 AU (inactive)

response.value for "O=c1cc(-c2ccccc2O)oc2cc(O)ccc12" (field: luciferase signal) = 112 AU (inactive)

response.value for "C[C@@H]1O[C@@H](O[C@H]2[C@H](Oc3cc(O)c4c(=O)cc(-c5ccc(O)cc5)oc4c3)O[C@H](CO)[C@@H](O)[C@@H]2O)[C@H](O)[C@H](O)[C@H]1O" (field: luciferase signal) = 56 AU (inactive)

response.value for "COc1cc(O)c(C(=O)/C=C/c2ccc(OC)c(O)c2)c(OC)c1" (field: luciferase signal) = 84 AU (inactive)

response.value for C=C[C@@]1(C)CC(=O)[C@@]2(O)[C@](C)(O1)[C@@H](O)[C@@H](O)C1C(C)(C)CC[C@H](O)[C@@]12C (stereo partly drawn) (field: luciferase signal) = 80 AU (inactive)

response.value for "CN1CC(=O)N2[C@H](c3ccc4c(c3)OCO4)c3[nH]c4ccccc4c3C[C@@H]2C1=O" (field: luciferase signal) = 40 AU (inactive)

response.value for "CN(C)CC(=O)OC[C@@H](O)[C@@H](O)[C@H](O)[C@@H](O)C(=O)O" (field: luciferase signal) = 36 AU (inactive)

response.value for COc1ccc2c(c1)OCC(Cc1ccc(O)c(OC)c1)C2=O (stereo not drawn) (field: luciferase signal) = 84 AU (inactive)

response.value for "COc1ccc(-c2oc3cc(OC)c(OC)c(OC)c3c(=O)c2OC)cc1" (field: luciferase signal) = 72 AU (inactive)

response.value for "COc1ccc(/C=C/C(=O)c2cc(O)ccc2O)cc1" (field: luciferase signal) = 80 AU (inactive)

response.value for CN1CCN(C(c2ccccc2)c2ccc(Cl)cc2)CC1 (stereo not drawn) (field: luciferase signal) = 100 AU (inactive)

response.value for C[C@@H]1O[C@@H](OC[C@H]2OC(Oc3c(-c4ccc(O)c(O)c4)oc4cc(O)cc(O)c4c3=O)[C@H](O)[C@@H](O)[C@@H]2O)[C@H](O)[C@H](O)[C@H]1O (stereo partly drawn) (field: luciferase signal) = 56 AU (inactive)

response.value for "CN(C)CC[C@H](c1ccc(Cl)cc1)c1ccccn1" (field: luciferase signal) = 80 AU (inactive)

response.value for "CC(=O)OC/C=C(\C)CC/C=C(\C)CC/C=C(\C)CC/C=C(\C)CC/C=C(\C)CC/C=C(\C)CC/C=C(\C)CC/C=C(\C)CCC=C(C)C" (field: luciferase signal) = 84 AU (inactive)

response.value for CN(Cc1cnc2nc(N)nc(N)c2n1)c1ccc(C(=O)NC(CCC(=O)O)C(=O)O)cc1 (stereo not drawn) (field: luciferase signal) = 32 AU (inactive)

response.value for "CC(C)(CO)[C@@H](O)C(=O)NCCC(=O)O" (field: luciferase signal) = 68 AU (inactive)

response.value for "O=C(O)c1ccccc1" (field: luciferase signal) = 36 AU (inactive)

response.value for "Cc1cc(-n2c(=O)[nH]c(=O)n(C)c2=O)ccc1Oc1ccc(SC(F)(F)F)cc1" (field: luciferase signal) = 136 AU (inactive)

response.value for "Cc1coc2c1C(=O)C(=O)c1c-2ccc2c1CCCC2(C)C" (field: luciferase signal) = 32 AU (inactive)

response.value for "O=C(NC1CCCCC1)NC1CCCCC1" (field: luciferase signal) = 60 AU (inactive)
